# system-name: DUSP5pdWT (Homo sapiens)
# Sequence (Q16690 178-319 limits assumed): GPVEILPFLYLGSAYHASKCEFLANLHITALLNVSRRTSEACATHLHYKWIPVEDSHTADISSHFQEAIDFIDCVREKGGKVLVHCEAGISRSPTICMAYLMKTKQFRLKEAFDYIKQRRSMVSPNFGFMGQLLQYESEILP
# assay-details: Steady state inhibition of pNPP hydrolysis by tripeptides
# Format: biochemical
# Parameters: The Dusp5 phosphatase domain gene, both wild type (WT; DUSP5pdWT; used for kinetic studies); inferred from the Nickel NTA purification), with additional N-terminal amino acids (N); made in house
# study-conditions: peptide as inhibitor of pNPP hydrolysis; global competitive model, Lineweaver-Burk fit (equation S2); read-out: Ki
Where a SMILES comes first, the peptide text is derived from it. [ ]: non-standard residue; d: D form. pT = C[C@@H](OP(=O)(O)O)[C@H](N)C(=O)O
property-label: Ki (mM)
Report the value in mM with no unit label.

Query block: # query: Ki of entry CC(=O)N[C@H](C(=O)N[C@@H](CCC(=O)O)C(=O)N[C@@H](Cc1ccc(O)cc1)C(N)=O)[C@@H](C)OP(=O)(O)O [pT-E-Y] (Ac-[pT]-Glu-Tyr-NH2)
Result block: 21.9
